Task for the reader: assign each of the following compounds its reported log10 TGI.
# Test system: COLO 205 colon
# ASSAY SUMMARY: NCI tumour cell line growth inhibition, 48 h
For clarity, the numbers are log10 values of TGI expressed in µM.

Q. Input CCOC(=O)C(NC(=O)N(C1=NCC(C)S1)C1CCCCC1)(OC)C(F)(F)F (configuration not stated) , output reported log10 TGI.
A. 1.71

Q. State, in one line, measured log10 TGI of COc1ccccc1/C=C1\CCC(CCN(C)C)(C2=CCCC2)C1=O (configuration not stated)
A. 1.34

Q. Supply reported log10 TGI belonging to this compound: COc1ccccc1N=C(N)N/N=C/c1c[nH]c2ccccc12
A. 0.52

Q. Give me measured log10 TGI, please, for this compound: CC1(C)CC[C@H](Nc2ncc(C(F)(F)F)c(-c3c[nH]c4c(P(C)(C)=O)c(C#N)ccc34)n2)CN1
A. -0.11

Q. For the compound Clc1ccc(Cc2nc3ccccc3nc2-c2cccc(Br)c2)cc1 , give its reported log10 TGI.
A. 1.08

Q. Indicate the recorded log10 TGI value for this compound: O=C(/C=C/C12c3ccccc3C(c3ccccc31)C1C(=O)N(c3ccccc3)C(=O)C12)c1ccccc1 (configuration not stated)
A. 0.69

Q. Give reported log10 TGI value for CC(C)=CCC[C@@H](C)C1=C(Nc2ccccc2Cl)C(O)=C(C)C(=O)C1=O
A. 0.99

Q. Let me know recorded log10 TGI for CN(C)c1nc(N(C)C)nc(N(C)C23CC4CC(CC(C4)C2)C3)n1 , thanks.
A. 1.51

Q. Provide one value: measured log10 TGI of Cc1ccc(/C(=N\N=C(N)N)c2ccccc2)cc1
A. -0.15

----------
Would you mind telling me the reported GI50 of each entry?
# Test system: NCI/ADR-RES ovarian
# ASSAY SUMMARY: NCI tumour cell line growth inhibition, 48 h

Q. Answer with reported GI50 of O=C1C=C(NCCNC(=S)Nc2ccccc2)c2nccc3c2c1nc1ccccc13
A. > 100000 nM

Q. Given Clc1ccc(N2N=C(c3cccc(Nc4ccncc4)c3)CC2c2ccc3c(c2)OCO3)cc1 (stereo not given) , respond with its GI50.
A. 1640 nM

Q. Given the compound Cc1ccc(/C(=N\N=C(N)N)c2ccccc2)cc1 , write its reported GI50.
A. 1090 nM

Q. Indicate the recorded GI50 value for this compound: O=[N+]([O-])c1ccc(S(=O)Cc2ccccc2)c([N+](=O)[O-])c1 (stereo not given)
A. 13500 nM

Q. Return GI50 for the following compound: C=CCN(/C=C1/C(=O)O[C@H](COC)[C@@]2(C)C1=C(O)C(=O)C1=C2[C@H](OC(C)=O)C[C@]2(C)C(=O)CC[C@@H]12)CC=C
A. > 4750 nM

Q. Answer with the recorded GI50 for the compound listed here: C[C@H](NC(=O)[C@@H]1CSSC[C@@H](NC(=O)c2nc3ccccc3cc2O)C(=O)NCC(=O)N1C)c1ccccc1
A. 11000 nM

Q. For COc1cc(CCN)c2c(c1OC)SSSSS2 , write its GI50.
A. 1630 nM

Q. Answer with the recorded GI50 for the compound listed here: CCn1c(C(=O)N(C2CC2)C2CC2)cc2c3c(ncn3C)c(Nc3cc(C)n(C)n3)nc21
A. > 100000 nM

Q. For the compound COc1ccccc1/C=C/[N+](=O)[O-] , give its measured GI50 value.
A. 2920 nM

Q. Find the measured GI50 of Cc1cc(/C=C\c2ccc3ccccc3[n+]2C)c(O)c2ncccc12 and report it.
A. 1100 nM

----------
For each record, write down the corresponding TGI.
# System: HCT-116 colon
# ASSAY SUMMARY: NCI tumour cell line growth inhibition, 48 h

Q. Supply TGI measured with HCT-116 colon for COc1ccccc1N=C(N)N/N=C/c1c[nH]c2ccccc12 .
A. 19.6 µM

Q. Jot down TGI (HCT-116 colon) of CC1OC(OCC2OC(Oc3c(-c4ccc(O)cc4)oc4cc(O)cc(O)c4c3=O)C(OC3OC(C)C(O)C(O)C3O)C(O)C2O)C(O)C(O)C1O (stereo not given) .
A. > 100 µM

Q. Give measured TGI for COC(=O)C(C(=O)C(=O)Nc1ccc(C(F)(F)F)cc1[N+](=O)[O-])c1csc(-n2nc(-c3ccccc3)cc2-c2ccccc2)n1 (stereo not given) (HCT-116 colon).
A. > 100 µM

Q. Give the observed TGI of CSC(CC(=O)O)C(=O)O (stereo not given) for HCT-116 colon.
A. > 100 µM

Q. Provide HCT-116 colon TGI reading for O=C(CCN1CCCC1)Nc1ccc2sc3ccccc3c(=O)c2n1 .
A. 16.4 µM

Q. Find TGI for CC[N+]1(C)CCC(O)(/C=C/c2ccc(OC)cc2)C(C(=O)/C=C/c2ccc(OC)cc2)C1 (stereo not given) on HCT-116 colon and write it down.
A. > 48.3 µM

Q. Param request: TGI | system HCT-116 colon | item CCCCC1CC(c2cccc([N+](=O)[O-])c2)=NO1 (stereo not given)
A. > 100 µM

Q. Fill: TGI (HCT-116 colon) for this compound CC1CCP(=O)(c2ccccc2)c2ccccc21 (stereo not given)
A. 46.7 µM

Q. Name the value of TGI reported for Cc1ccc(C(=O)O)c(CC2Cc3c(C)cccc3C2=O)c1 (stereo not given) when tested on HCT-116 colon.
A. > 100 µM

Q. System HCT-116 colon. Read-out TGI. Item CC(C)C1(O)C(c2ccccc2)=C(c2ccccc2)C(c2ccccc2)=C1c1ccccc1 . Report value.
A. 13.4 µM

Q. With HCT-116 colon as the test system, provide measured TGI for this compound: OCCCOC(c1ccccc1)(c1ccccc1)c1ccccc1
A. > 100 µM

Q. Report the value of TGI obtained on HCT-116 colon for N=c1oc2ccc3ccccc3c2cc1C(N)=O .
A. > 100 µM

Q. Check HCT-116 colon data and give TGI for CCOC(=O)/C(O)=C/c1cc(OC)cc(=O)o1 .
A. > 100 µM

Q. For HCT-116 colon, give TGI of the listed compound: Cc1c(S(C)(=O)=O)c(-c2cc(F)cc(N3CCN(c4ccc(NS(=O)(=O)c5ccc(N[C@H](CCN6CCC(C(=O)OCCCP(=O)(O)O)CC6)CSc6ccccc6)c(S(=O)(=O)C(F)(F)F)c5)cc4)CC3)c2)c(-c2ccc(Cl)cc2)n1C(C)C
A. > 100 µM

Q. Send back HCT-116 colon TGI of O=C([CH-]C(=O)c1ccccc1)c1ccccc1.O=C([CH-]C(=O)c1ccccc1)c1ccccc1.O=C([CH-]C(=O)c1ccccc1)c1ccccc1.[Nd+3].[OH3+] only.
A. 19.1 µM

Q. Name the recorded TGI of N#CC(C#N)=C1C(C#N)=C(N)NC12OCCO2 , assay system HCT-116 colon.
A. > 100 µM

Q. Lab note: HCT-116 colon assay, enter TGI for CC(C)=CCC[C@@H](C)C1=C(Nc2ccccc2Cl)C(O)=C(C)C(=O)C1=O here
A. > 43.7 µM

Q. Answer with TGI of COc1cccc(CC(C)NCC(O)c2ccc(O)c(O)c2)c1 (stereo not given) measured for HCT-116 colon.
A. > 100 µM

Q. Quote HCT-116 colon TGI for entry CC[N+](C)(CC)CCC(O)(c1ccccc1)c1ccccc1 .
A. > 100 µM

Q. # return TGI for O=[N+]([O-])c1c(Br)cc(Br)c2c1Nc1c(ccc(Cl)c1Cl)S2 , test system: HCT-116 colon
A. 19.1 µM

----------
# Tested on: IGROV1 ovarian
# ASSAY SUMMARY: NCI tumour cell line growth inhibition, 48 h
I'd be grateful if you could share measured TGI for these entries.

Q. // fetch TGI; item: C(=C\c1cccc(/C=C/c2ccccn2)n1)/c1ccccn1 ; system: IGROV1 ovarian
A. > 100 µM

Q. Under IGROV1 ovarian: report TGI of CCNc1ccc2c(c1)Cc1ccccc1-2 .
A. > 100 µM

Q. State TGI (IGROV1 ovarian) of O=C1CCC2(CCO1)OCCO2 .
A. > 100 µM

Q. State the measured TGI (IGROV1 ovarian) of O=C(/C(=C\C(=O)c1cccs1)c1ccsc1)c1ccc(Br)cc1
A. > 100 µM

Q. Provide the reported TGI (system: IGROV1 ovarian) for N#Cc1nc(CCCCCN2C(=O)c3ccccc3C2=O)oc1N
A. > 100 µM

Q. Please look at COc1ccc(N(C)C(=O)N(C)c2ccc([N+](=O)[O-])cc2)cc1 and tell me its recorded TGI on IGROV1 ovarian.
A. > 100 µM

Q. Give reported TGI for CN(C)CCNC(=O)c1ccc(NCCCN(C)CCCNc2ccc3c(=O)n(CCN(C)C)c(=O)n4c5ccccc5c(=O)c2c34)c2c(=O)c3ccccc3[nH]c12 (IGROV1 ovarian)
A. 1.16 µM

Q. Provide the reported TGI (system: IGROV1 ovarian) for CCOC(=O)C(=[N+]=[N-])C(=O)Nc1nn2nnnc2c2ccccc12
A. > 100 µM

Q. Please indicate recorded TGI of CC(=O)N[C@@H]1C(O)CN2C(=O)C(=O)O[C@H](C(O)CO)[C@@H]12 (stereo partly specified) measured with IGROV1 ovarian.
A. > 100 µM

Q. Under IGROV1 ovarian, report TGI for O=C(c1ccccc1)C1CCCCN1C(=O)c1ccccc1 (stereo unspecified)
A. > 100 µM

Q. Report value: TGI, system: IGROV1 ovarian, compound: C1C[OH+]CC[OH+]CCNCC[OH+]CC[OH+]CCN1.[Cl-].[Pt+4]
A. > 100 µM

Q. Consider the compound COc1ccccc1/C=C/[N+](=O)[O-] tested on IGROV1 ovarian; state its TGI.
A. 8.32 µM

Q. For IGROV1 ovarian, give TGI of the listed compound: CC1OC(OCC2OC(Oc3c(-c4ccc(O)cc4)oc4cc(O)cc(O)c4c3=O)C(OC3OC(C)C(O)C(O)C3O)C(O)C2O)C(O)C(O)C1O (stereo unspecified)
A. > 100 µM

Q. Please respond with reported TGI (system IGROV1 ovarian) for Clc1ccc(N2N=C(c3cccc(Nc4ccncc4)c3)CC2c2ccc3c(c2)OCO3)cc1 (stereo unspecified) .
A. 3.67 µM

Q. Supply TGI measured with IGROV1 ovarian for COC1OC(Cc2nnc(C)o2)C(OCc2ccccc2)C(OCc2ccccc2)C1OCc1ccccc1 (stereo unspecified) .
A. 52.4 µM

Q. Give TGI for this entry on IGROV1 ovarian: CCn1c(C(=O)N(C2CC2)C2CC2)cc2c3c(ncn3C)c(Nc3cc(C)n(C)n3)nc21
A. > 100 µM

Q. Output reported TGI of the compound Cc1cc(O)c(C(C)C)cc1SC#N on IGROV1 ovarian.
A. 37.6 µM

Q. Specify the recorded TGI for CCCCc1c2c(nc3c1CCc1cc4cc5c(nc4nc1-3)-c1nc3c(c(CCCC)c1CC5)CCCC3)CCCC2 , system: IGROV1 ovarian.
A. > 100 µM

Q. Report value: TGI, system: IGROV1 ovarian, compound: COc1cc(CCN)c2c(c1OC)SSSSS2
A. 1.55 µM

Q. State measured TGI of the compound CC1CC#CCOC(=O)CCCC1=O (stereo unspecified) with IGROV1 ovarian.
A. > 100 µM

Q. State the measured TGI (IGROV1 ovarian) of CS(=O)(=O)OCCN1CCN(C(=O)c2cccc3c(Nc4ccc(S(=O)(=O)N=C(N)N)cc4)c4ccccc4nc23)CC1
A. > 100 µM
